Biological target: N-acetyltransferase Eis (Mycobacterium tuberculosis (strain ATCC 25618 / H37Rv))
Sequence (P9WFK7 whole entry): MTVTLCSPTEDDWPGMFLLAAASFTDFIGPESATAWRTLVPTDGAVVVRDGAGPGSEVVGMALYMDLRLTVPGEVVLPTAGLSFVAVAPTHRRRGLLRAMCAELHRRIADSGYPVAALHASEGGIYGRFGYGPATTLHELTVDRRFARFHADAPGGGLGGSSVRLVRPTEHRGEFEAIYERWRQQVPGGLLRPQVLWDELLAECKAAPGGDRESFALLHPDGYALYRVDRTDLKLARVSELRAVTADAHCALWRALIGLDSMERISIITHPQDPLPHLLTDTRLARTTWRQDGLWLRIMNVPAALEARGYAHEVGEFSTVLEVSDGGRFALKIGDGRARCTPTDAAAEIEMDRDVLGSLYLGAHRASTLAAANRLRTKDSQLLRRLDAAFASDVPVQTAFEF
Assay: Inhibition of Mycobacterium tuberculosis H37Rv Eis protein using kanamycin as substrate preincubated for 10 mins followed by AcCoA addition and measured every 30 secs for 30 mins
readout_name: pIC50
Answers are plain numbers, as −log10 of the molar value.

// recorded pIC50 for `COc1ccc(C(=O)CSc2nc3ccccc3c(=N)n2-c2ccccc2)cc1` : 4.96
